molecular target: HLA-C*04:01; assay: IEDB peptide-MHC binding, purified MHC/direct/fluorescence; filed as Kd, often an IC50 or EC50 that approximates it; bounds were set here for any values at or beyond the usual limits of such assays; settings: source organism: Escherichia coli B171
pKd: −log10 of the molar value.
Assay Endpoint: pKd

QUERY: Lab note: HLA-C*04:01 assay, enter pKd for HADDIPVPV here
RESULT: ≤ 4.70

---

target: HLA-B*44:02; assay: IEDB peptide-MHC binding, purified MHC/direct/fluorescence; filed as Kd, often an IC50 or EC50 that approximates it; bounds were set here for any values at or beyond the usual limits of such assays; settings: source organism: Ebola virus - Gabon (1994-1997)
Assay Endpoint: Kd

QUERY: Retrieve Kd measured for QLSLKMLSL and print it.
RESULT: ≥ 20 µM

---

target: HLA-A*69:01; test: IEDB peptide-MHC binding, purified MHC/direct/fluorescence; filed as Kd, often an IC50 or EC50 that approximates it; bounds were set here for any values at or beyond the usual limits of such assays; settings: source organism: Vibrio cholerae
Listed below: Kd values for each entry.

Check out these entries, answers already filled in.
> print(dat)
         seq  study.system  assay.endpoint  observed.measurement
1  AEIDRSFKP   HLA-A*69:01              Kd               ≥ 20 µM
2  GEHWLGRIW   HLA-A*69:01              Kd               ≥ 20 µM

# evaluate next
QUERY: Please give measured Kd of the following entry: VLKLRFWLI
RESULT: ≥ 20 µM

---

target: HLA-B*44:03; assay: IEDB peptide-MHC binding, purified MHC/competitive/radioactivity; filed as Kd, often an IC50 or EC50 that approximates it; bounds were set here for any values at or beyond the usual limits of such assays; conditions: source organism: Mammarenavirus machupoense
Each entry below lists one item and its recorded pKd value.
Interpret pKd as the negative base-10 log of the concentration measured in mol/L.

> print(dat)
         seq  study.system  observed.measurement
1  PEIWLQLNT   HLA-B*44:03                  5.63

QUERY: Return the recorded pKd value; entry: RECYVQRFYL
RESULT: 5.96

QUERY: Item PEIWLQLNTL : provide pKd
RESULT: 5.09

---

biological target: HLA-A*31:01; assay: IEDB peptide-MHC binding, purified MHC/competitive/fluorescence; filed as Kd, often an IC50 or EC50 that approximates it; bounds were set here for any values at or beyond the usual limits of such assays; conditions: source organism: Yellow fever virus 1899/81
Assay Endpoint: pKd
# log scale: pKd equals minus log10 of the concentration in mol/L

QUERY: Read the entry KTALTGAMR and write its reported pKd.
RESULT: 7.80

---

biological target: HLA-B*27:05; assay: IEDB peptide-MHC binding, purified MHC/competitive/fluorescence; filed as Kd, often an IC50 or EC50 that approximates it; bounds were set here for any values at or beyond the usual limits of such assays; details: source organism: Giardia lamblia ATCC 50803
pKd: −log10 of the molar value.
Assay Endpoint: pKd

QUERY: Provide measured pKd value, entry: MTFPLHFRS
RESULT: ≤ 5.30

---

target: HLA-B*08:01; assay: IEDB peptide-MHC binding, purified MHC/direct/fluorescence; filed as Kd, often an IC50 or EC50 that approximates it; bounds were set here for any values at or beyond the usual limits of such assays; conditions: source organism: Marburg virus - Musoke, Kenya, 1980
Assay Endpoint: Kd (µM)
Write down the numeric answer in µM and omit the unit.

QUERY: # return Kd for QGKQHLHSL , test system: HLA-B*08:01
RESULT: 0.212
